// reported Anti-Antidiuretic pA2 per item
- System: antidiuretic response to ADH (arginine vasopressin)
- protocol.details: Antagonism of the antidiuretic response to ADH (anti-antidiuretic potency) in ethanol-anesthetized water-loaded rats
- applied.conditions: estimated in vivo pA2 = negative logarithm of effective dose divided by estimated volume of distribution (67 mL/kg); (n) in parentheses
*1 amine or outer side, *2 acyl side, *3 side chain or, on linkers, in order; H or OH if unused. Where a SMILES comes first, the peptide text is derived from it. Bridges are numbered along the chain shown (N, C = ends). [ ]: non-standard residue; d: D form. The star is where a group is joined. X1 = O=C(CC1(S[*:2])CCCCC1)[*:1]; iPr = CC(C)*

compound | Anti-Antidiuretic pA2
CC(C)[C@@H]1NC(=O)[C@H](Cc2ccccc2)NC(=O)[C@@H](Cc2ccccc2)NC(=O)CC2(CCCCC2)SSC[C@@H](C(=O)N2CCC[C@H]2C(=O)N[C@@H](CCCNC(=N)N)C(=O)NCC(N)=O)NC(=O)[C@H](CC(N)=O)NC1=O [d(CH2)5 D-Phe VAVP] ([dF]FVNCPRG-NH2; linker N-5 via X1) | 8.07
CCOc1ccc(C[C@@H]2NC(=O)CC3(CCCCC3)SSC[C@@H](C(=O)N3CCC[C@H]3C(=O)N[C@H](CCCNC(=N)N)C(=O)NCC(N)=O)NC(=O)[C@H](CC(N)=O)NC(=O)[C@H](C(C)C)NC(=O)[C@H](Cc3ccccc3)NC2=O)cc1 [d(CH2)5 Tyr(Et) VDAVP] (Y(Et)FVNCP[dR]G-NH2; linker N-5 via X1) | 7.10
CC(C)Oc1ccc(C[C@@H]2NC(=O)CC3(CCCCC3)SSC[C@@H](C(=O)N3CCC[C@H]3C(=O)N[C@H](CCCNC(=N)N)C(=O)NCC(N)=O)NC(=O)[C@H](CC(N)=O)NC(=O)[C@H](C(C)C)NC(=O)[C@H](Cc3ccccc3)NC2=O)cc1 [d(CH2)5 Tyr(i-Pr) VDAVP] (Y(iPr)FVNCP[dR]G-NH2; linker N-5 via X1) | 6.88
CC(C)Oc1ccc(C[C@@H]2NC(=O)CC3(CCCCC3)SSC[C@@H](C(=O)N3CCC[C@H]3C(=O)N[C@@H](CCCNC(=N)N)C(=O)NCC(N)=O)NC(=O)[C@H](CC(N)=O)NC(=O)[C@H](C(C)C)NC(=O)[C@H](Cc3ccccc3)NC2=O)cc1 [d(CH2)5 Tyr(i-Pr) VAVP] (Y(iPr)FVNCPRG-NH2; linker N-5 via X1) | 7.32
CC(C)[C@@H]1NC(=O)[C@H](Cc2ccccc2)NC(=O)[C@@H](Cc2ccccc2)NC(=O)CC2(CCCCC2)SSC[C@@H](C(=O)N2CCC[C@H]2C(=O)N[C@H](CCCNC(=N)N)C(=O)NCC(N)=O)NC(=O)[C@H](CC(N)=O)NC1=O [d(CH2)5 D-Phe VDAVP] ([dF]FVNCP[dR]G-NH2; linker N-5 via X1) | 7.07
CC(C)[C@@H]1NC(=O)[C@H](Cc2ccccc2)NC(=O)[C@@H](Cc2ccc(O)cc2)NC(=O)CC2(CCCCC2)SSC[C@@H](C(=O)N2CCC[C@H]2C(=O)N[C@@H](CCCNC(=N)N)C(=O)NCC(N)=O)NC(=O)[C@H](CC(N)=O)NC1=O [d(CH2)5 D-Tyr VAVP] ([dY]FVNCPRG-NH2; linker N-5 via X1) | 7.51
